Each recorded value in this set is attributed to ChEMBL document CHEMBL4513216.

Assignment: determine reported INHIBITION for the given compounds.
- Test system: Plasmodium berghei
- Experiment Description: Screen against P. berghei liver stage (PbLuc), transformed with Luciferase, at 10uM
- Type: functional, HepG2
- Experimental Conditions: tested at 10 uM
Among all 69,000 compounds or so, about 8,600 (12%) showed an effect of 50% or more. Many of the other results were omitted from the sample, so strong results are more common in it than they were.
Lab book: enter the figure in %, no units written.

## Task Let me know recorded INHIBITION for CSCCc1nc(-c2ccc3c(c2)OCO3)n(C)n1 , thanks.
## Result 25.9

## Task Given Cc1cc(CN2CCN(Cc3cnc4c(c3)c(C)nn4C)CC2)on1 , respond with its INHIBITION.
## Result 11.5

## Task For the compound CCOc1ccccc1N1CCN(C(=O)NCc2cc[nH]n2)CC1 , give its reported INHIBITION.
## Result 49.8

## Task Please list INHIBITION recorded for the compound CS(=O)(=O)NC1CCN(C(=O)NCc2cc[nH]n2)CC1
## Result 8.64

## Task Supply recorded INHIBITION for COc1c(C)cnc(CN(C)C2CCCCC2)c1C here.
## Result 72

## Task Annotate the compound CN(Cc1cc2n(n1)CCN(C(=O)c1cccnc1)C2)Cc1nccs1 with its measured INHIBITION.
## Result -10.6

## Task Read the entry CCCc1ccc2oc(C(=O)N3CCN(CCC(N)=O)CC3)c(C)c2c1 and write its reported INHIBITION.
## Result 18.5

## Task // fetch INHIBITION given entry Cn1cnnc1SCCCNC(=O)Nc1ncccn1
## Result 4.66

## Task Find the measured INHIBITION of Cc1cccc(OC2CCN(C(=O)NCCn3ccnc3)CC2)c1C and report it.
## Result -4.13

## Task Answer with the recorded INHIBITION of Cc1cc(C2CCCN(CCS(=O)(=O)c3ccccc3)C2)n[nH]1 (stereo not given) only.
## Result -9.76

###

- Tested on: Plasmodium berghei
- Experiment Description: Screen against P. berghei liver stage (PbLuc), transformed with Luciferase, at 10uM
- Format: functional, HepG2
- Experimental Conditions: tested at 10 uM
About 8,600 (12%) of roughly 69,000 compounds showed an effect of 50% or more. What follows is part of a selection rich in strong results, with near analogues and random picks from the rest.
Mark T for reported INHIBITION of 40% or greater; mark F for anything smaller.

## Task Test whether the molecule CN1CC(c2ccccc2)CC12CCN(C(=O)c1ccc(Cl)cn1)CC2 (stereo unspecified) records INHIBITION of 40% or higher.
## Result F

## Task Hi, just wondering whether CN1CC(c2ccccc2)CC12CCN(C(=O)c1ccc(Cl)cc1)CC2 (stereo unspecified) shows INHIBITION of 40% or higher.
## Result F

## Task Tell me whether INHIBITION is at least 40% here: CCc1noc(CN(C)Cc2cc3ccc(Cl)cc3[nH]c2=O)n1
## Result F

## Task Textbook exercise: given the entry CNC(=O)C1CN(C)CCN(CCCOc2ccccc2F)C1 (stereo unspecified) , state whether its INHIBITION is greater than or equal to 40%.
## Result F

## Task Kindly determine if INHIBITION recorded for CC1CCCN(CCCNC(=O)c2cn(C)nc2-c2cccnc2)C1 (stereo unspecified) is above or exactly 40%.
## Result F

## Task Is reported INHIBITION greater than or equal to 40% here: O=C(c1nn[nH]c1Nc1ccc(Cl)cc1)N1CCCCCC1
## Result T

## Task hey, is INHIBITION for this one >= 40%? CN(C)CCCNC(=O)c1ccc(N(C)S(C)(=O)=O)cc1Cl
## Result T

## Task Does the reported INHIBITION for CN(C)CCCNC(=O)c1cc(Cl)ccc1Cl fall at or above the 40% mark?
## Result F

## Task hey, is INHIBITION for this one >= 40%? CN1CC(c2ccccc2)CC12CCN(C(=O)c1c(Cl)cnn1C)CC2 (stereo unspecified)
## Result T

## Task Is INHIBITION for O=C(CCn1ccc2ccccc21)Nc1ccnn1CC1CCOC1 (stereo unspecified) at or above 40%?
## Result F

## Task Does the molecule COc1ccc(-c2cnc(NC(C)=O)[nH]2)cc1 have recorded INHIBITION that is 40% or more?
## Result T

## Task Please tell me: is the molecule COc1cccc(CN(C)C(=O)CCC(=O)c2ccccc2)c1OC at or over 40% in terms of INHIBITION?
## Result F

## Task Could you verify whether the entry COCC(=O)N1CCc2ccc(=O)n(Cc3csc(C)n3)c2CC1 shows INHIBITION of no less than 40%?
## Result F

## Task Test whether the molecule CN1CC(c2ccccc2)CC12CCN(C(=O)c1cncc(Cl)c1)CC2 (stereo unspecified) records INHIBITION of 40% or higher.
## Result F

## Task Decide: INHIBITION of O=C(c1nn[nH]c1Nc1ccc(Cl)cc1)N1CCSCC1 >= 40%?
## Result F
